All values here come from ChEMBL document CHEMBL4811241.

experimentalProtocol: Toxicity in Swiss webster mouse infected with Trypanosoma cruzi Y trypomastigotes assessed as animal survival at 2.5 to 25 mg/kg, po bid for 5 days treatment started at 6 days post-infection and measured at 34 days post-infection
Format: organism-based
conditionLabel: in vivo, dose 2.5-25 mg/kg, time 29 day
assayReadout: survival at 696 h
Just the number plus its unit, please.

Need survival at 696 h, item `Nc1ncnc2c1c(-c1ccc(Cl)cc1)nn2[C@@H]1O[C@H](CO)[C@@H](O)[C@H]1O`
83%

====

testedTarget: CYP450 (Homo sapiens, UniProt P04798+P05177+P05181+P08684+P10632+P10635+P11509+P11712+P13584+P20813+P20815+P20853+P24462+P24903+P33260+P33261+P51589+P78329+P98187+Q02928+Q08477+Q16678+Q16696+Q5TCH4+Q6VVX0+Q7Z449+Q8TAV3+Q96SQ9+Q9HB55)
experimentalProtocol: Metabolic stability of the compound in human liver microsomes S9 fraction assessed as CYP450-mediated metabolism by measuring parent compound remaining at 5 uM measured after 15 mins in presence of NADPH by UPLC-MS analysis
Assay type: ADME, subcellular
conditionLabel: read-out: Stabilty
assayReadout: remaining at 0.25 h, 5 µM (%)
Give just the numeric value; % need not be written.

Need remaining at 0.25 h, 5 µM, item `Nc1ncnc2c1c(-c1ccc(Cl)cc1)nn2[C@@H]1O[C@H](CO)[C@@H](O)[C@H]1O`
102
